Where do these numbers come from? They come from ChEMBL document CHEMBL4689842.

Test system: U2OS
assay-notes: Multiplex assay against U2OS
Type: toxicity, cell-based
condition-context: human, 12 h, 10 µM, compound concentration 10 uM, replicate 1
We begin with a simple list: items and their reported Population Normal (%).
State the answer as a number, implicitly in %.

> print(dat)
                                   molecule  system.name  data.value
1  CN1CCC(=C2c3ccccc3CC(=O)c3sccc32)CC1.O=C(O)/C=C/C(=O)O [KETOTIFEN FUMARATE]         U2OS          94
2  COc1ccc(-c2ccc3c(N4CCOCC4)nc(N4C[C@@H](C)O[C@@H](C)C4)nc3n2)cc1CO         U2OS          68
3  O=C(Cc1ccc(-c2ccc(OCCN3CCOCC3)cc2)cn1)NCc1ccccc1         U2OS          89
4  CN(C)C(=O)C(CCN1CCC(O)(c2ccc(Cl)cc2)CC1)(c1ccccc1)c1ccccc1.Cl [LOPERAMIDE HYDROCHLORIDE]         U2OS          95
5  CNc1cc(Oc2cc(C(=O)Nc3cc(N4CCN(C)CC4)cc(C(F)(F)F)c3)ccc2C)ncn1         U2OS          93
6  CCn1c(=O)c(-c2ccc(-c3cncs3)cc2Cl)cc2cnc(Nc3ccc(N4CCN(C)CC4)cc3)nc21         U2OS          22

Exam item: // fetch U2OS Population Normal (%) for `NC(=O)c1cccc(-c2cc(Nc3ccc(OC(F)(F)F)cc3)ncn2)c1`
Marked response: 96

Exam item: Report Population Normal (%) for CCOC(=O)c1c(C)[nH]c2ccc3c(c12)CN1CCc2cc(OC)ccc2C1O3 (configuration not stated) tested on U2OS.
Marked response: 94

Exam item: What Population Normal (%) appears in the records for this molecule with U2OS? `Cc1cc(C)c(S(=O)(=O)N(Cc2ccc(-c3cccc(S(C)(=O)=O)c3)cc2)Cc2ccc(C(F)(F)F)o2)c(C)c1`
Marked response: 94

Exam item: Fill in the recorded Population Normal (%) for this molecule, with U2OS as test system: `S=C(NCCCc1c[nH]cn1)NCCCN(Cc1ccc(Cl)c(Cl)c1)c1ccc(Br)cn1`
Marked response: 84

Exam item: # query: Population Normal (%) | item `O=C(Nc1ccc(Cl)cc1)Nc1cccc(-c2cccc(N3CCCC3)n2)c1` | system: U2OS
Marked response: 89
